These data points were gathered from patent US9073940B2.

System: 4 PI3K isoforms (Human recombinant GST-PI3K)
Method Notes: PI3K scintillation proximity assay, best IC50 obtained with the four isoforms (alpha, beta, delta, gamma)
Format: biochemical
Run Conditions: best IC50 obtained with the four isoforms of PI3K; read-out: Best potency measured on the 4 PI3K isoforms
pIC50: −log10 of the molar value.
pIC50 reference
Endpoint Name: pIC50

[[record]]
compound = "COc1ccc2c(c1)S(=O)(=O)Cc1c(C(=O)N3CCOCC3)nn([C@H]3CCCN(CCC4CCOCC4)C3)c1-2 (single isomer, unassigned)"
endpoint_name = "pIC50"
endpoint_result = 7.57

[[record]]
compound = "O=C(c1cccc(-n2nc(C(=O)N3CCOCC3)c3c2-c2ccccc2S(=O)(=O)C3)c1)N1CCOCC1"
endpoint_name = "pIC50"
endpoint_result = 7.14

[[record]]
compound = "CN(C)C(=O)c1ccc2c(c1)-c1c(c(C(=O)N3CCOCC3)nn1-c1ccccc1)CS2(=O)=O"
endpoint_name = "pIC50"
endpoint_result = 5.43

